Entries and their Percent Effect values follow.
- tested target: AMP-activated protein kinase, AMPK (Homo sapiens) (UniProt P54646+O43741+P54619+Q9UGJ0+Q9Y478+Q13131+Q9UGI9)
- test details: AMP-dependent Kinase enzyme assay. An in vitro enzyme assay that detects ADP turnover that is directly proportional to AMPK activity. This uses naive AMPK that is activated during the assay with MK-8722
- Format: functional
- Design: scale not given: direction of the effect not stated beside the values
- measurement setup: 30 µM
The answer is to be given in %; state only the numeric part.

molecule: Cc1cc(CN2CC[C@H]3C[C@H](c4nccs4)O[C@@H]3C2)no1
uom: %
Percent Effect: 5.99
--
molecule: CCc1cccnc1NCc1cnc(N2CCOCC2)nc1
uom: %
Percent Effect: 22.9

# evaluate next
Prompt line: What Percent Effect value was documented for this molecule, O=C1CSC(c2ccsc2)c2sccc2N1 (stereo not drawn) ?
Response line: 7.24
